# ASSAY METHOD TEXT: Cytotoxicity (XTT) in Vero E6 cells
# MEASUREMENT CONTEXT: African green monkey
OBSERVATION TYPE: CC50 at 3 days

COMPOUND: CCC(CC)COC(=O)[C@H](C)N[P@](=O)(OC[C@H]1O[C@@](C#N)(c2ccc3c(N)ncnn23)[C@H](O)[C@@H]1O)Oc1ccccc1 [Remdesivir, reference compound]
REPORTED: > 50 µM

====

# Tested on: CCRF-CEM cells
# ASSAY METHOD TEXT: Steady-state intracellular uptake in CCRF-CEM cells
# Type: in vitro ADME
# MEASUREMENT CONTEXT: 60 min incubation, 50 μM at t = 0
# From the text: While an enzymatic MTase assay represents a valuable fast screening platform providing the information that can be directly used for SAR analyses, it is not fully predictive for the compounds’ activity in whole cells. In order to verify the ability of the compounds to reach the intracellular compartment, we measured the steady-state accumulation of representative compounds in intact CCRF-CEM, VERO-E6, and Calu-3 cells (Tables 3 and S2). […]
Lab note: anything with EC (extracellular concentration in the media at t = 60 min) ± sd at or over 10 µM counts as Met; the rest go in Not met.

MOLECULE: CCN(C[C@H]1O[C@@H](n2cc(C#Cc3cccnc3)c3c(N)ncnc32)[C@H](O)[C@@H]1O)S(=O)(=O)c1ccc(OC)c(C#N)c1 [Compound 12l]
LABEL VALUE: Met
--
MOLECULE: COc1ccc(S(=O)(=O)N(C)C[C@H]2O[C@@H](n3cc(C#Cc4cccnc4)c4c(N)ncnc43)[C@H](O)[C@@H]2O)cc1C#N [Compound 12s]
LABEL VALUE: Met
--
MOLECULE: CCN(C[C@H]1O[C@@H](n2cc(C#Cc3nc4ccccc4[nH]3)c3c(N)ncnc32)[C@H](O)[C@@H]1O)S(=O)(=O)c1ccc(OC)c(C#N)c1 [Compound 12a]
LABEL VALUE: Met
--
MOLECULE: CCN(C[C@H]1O[C@@H](n2cc(C#Cc3ccc(C(N)=O)cc3)c3c(N)ncnc32)[C@H](O)[C@@H]1O)S(=O)(=O)c1ccc(OC)c(C#N)c1 [Compound 12o]
LABEL VALUE: Met
--
MOLECULE: COc1ccc(S(=O)(=O)N(C)C[C@H]2O[C@@H](n3cc(C#Cc4cnc5ccccc5c4)c4c(N)ncnc43)[C@H](O)[C@@H]2O)cc1C#N [Compound 12q]
LABEL VALUE: Not met
--
MOLECULE: COc1ccc(S(=O)(=O)N(C)C[C@H]2O[C@@H](n3cc(C#Cc4ccc(C(N)=O)cc4)c4c(N)ncnc43)[C@H](O)[C@@H]2O)cc1C#N [Compound 12r]
LABEL VALUE: Met
--
MOLECULE: CCN(C[C@H]1O[C@@H](n2cc(C#Cc3cnc4ccccc4c3)c3c(N)ncnc32)[C@H](O)[C@@H]1O)S(=O)(=O)c1ccc(OC)c(C#N)c1 [Compound 12e]
LABEL VALUE: Not met
--
MOLECULE: CCN(C[C@H]1O[C@@H](n2cc(C#Cc3ccc(N)nc3)c3c(N)ncnc32)[C@H](O)[C@@H]1O)S(=O)(=O)c1ccc(OC)c(C#N)c1 [Compound 12h]
LABEL VALUE: Met
